Reference source: patent US20020028938A1

- tested.system: recombinant human Cox-2 (r-hu Cox-2) (Homo sapiens, UniProt P35354)
- Sequence (P35354 18-604): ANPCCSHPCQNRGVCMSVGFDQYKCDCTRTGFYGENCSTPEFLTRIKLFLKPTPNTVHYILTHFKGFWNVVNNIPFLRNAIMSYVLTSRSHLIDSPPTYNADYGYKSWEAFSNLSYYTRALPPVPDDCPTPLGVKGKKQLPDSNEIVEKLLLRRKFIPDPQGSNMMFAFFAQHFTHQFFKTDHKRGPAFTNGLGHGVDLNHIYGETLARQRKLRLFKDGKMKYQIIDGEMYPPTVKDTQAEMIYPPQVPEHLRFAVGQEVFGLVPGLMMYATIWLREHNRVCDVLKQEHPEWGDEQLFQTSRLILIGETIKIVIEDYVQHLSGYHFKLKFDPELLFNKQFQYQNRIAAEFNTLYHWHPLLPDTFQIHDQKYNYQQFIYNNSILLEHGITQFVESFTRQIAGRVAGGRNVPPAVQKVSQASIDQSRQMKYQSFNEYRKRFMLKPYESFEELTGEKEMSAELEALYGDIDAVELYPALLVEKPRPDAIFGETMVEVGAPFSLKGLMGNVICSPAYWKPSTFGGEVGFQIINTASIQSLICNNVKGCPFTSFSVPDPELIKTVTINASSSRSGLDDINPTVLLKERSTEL
- procedure.text: Recombinant human PGHS-2 enzyme assay (RHUCX2)
- experimental.parameters: read-out: RHUCX2 IC50 (parenthetical value)
Let's look at some compounds and their measured pIC50.
Conceptually, pIC50 converts a concentration in mol/L into minus its log10.

Solved entries:
- line.notation: "CC(C)COc1c(-c2ccc(S(N)(=O)=O)cc2)cnn(CC(F)(F)F)c1=O"
  tested.system: "recombinant human Cox-2 (r-hu Cox-2) (Homo sapiens, UniProt P35354)"
  pIC50: 6.89
- line.notation: "NS(=O)(=O)c1ccc(-c2cnn(-c3ccc(F)c(F)c3)c(=O)c2-c2ccc(F)cc2)cc1"
  tested.system: "recombinant human Cox-2 (r-hu Cox-2) (Homo sapiens, UniProt P35354)"
  pIC50: 6.85

Moving on to the next compound.
Give the measured pIC50 of CC(C)(C)COc1c(-c2ccc(S(C)(=O)=O)cc2)cnn(CC(F)(F)F)c1=O .
6.79
